Target: Estrogen receptor (Homo sapiens) (UniProt P03372)
Sequence (P03372 whole entry, looked up): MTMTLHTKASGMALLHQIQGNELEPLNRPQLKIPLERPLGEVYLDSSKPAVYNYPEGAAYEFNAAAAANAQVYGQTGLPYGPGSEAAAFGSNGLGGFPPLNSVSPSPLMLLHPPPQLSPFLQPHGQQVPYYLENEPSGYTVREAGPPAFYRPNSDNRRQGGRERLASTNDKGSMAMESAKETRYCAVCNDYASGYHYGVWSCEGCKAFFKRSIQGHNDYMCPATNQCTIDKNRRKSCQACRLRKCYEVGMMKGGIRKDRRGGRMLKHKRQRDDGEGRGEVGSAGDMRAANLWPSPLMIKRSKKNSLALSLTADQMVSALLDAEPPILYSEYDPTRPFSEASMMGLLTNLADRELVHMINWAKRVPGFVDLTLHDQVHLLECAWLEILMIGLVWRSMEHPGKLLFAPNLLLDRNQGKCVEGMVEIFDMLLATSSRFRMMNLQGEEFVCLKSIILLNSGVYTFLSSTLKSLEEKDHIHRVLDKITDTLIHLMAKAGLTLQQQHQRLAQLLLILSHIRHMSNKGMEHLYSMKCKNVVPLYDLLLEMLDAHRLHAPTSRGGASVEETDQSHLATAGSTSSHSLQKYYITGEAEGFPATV
Assay: OT_ERa_GFPERaERE_0480: Odyssey Thera (OT) 8-hour HeLa Transcription Induction Assay for Estrogen Receptor (AID 2283381)
The source made the active and inactive calls. The calls were made as follows: active = hit-call score of the fitted dose curve at least 0.9, where 1 is the maximum; inactive = score below 0.9.
readout-label: AC50

N#CN=C(N)N | inactive
CCN1CCC2(CC1)COc1cc3c(cc12)N(C(=O)c1ccc(-c2ccc(-c4nnc(C)o4)cc2C)cc1)CC3 | inactive
CC(C)(OO)c1ccccc1 | 35.3 µM (active)
CCC(=O)C(CC(C)N(C)C)(c1ccccc1)c1ccccc1 (stereo not given) | inactive
CC1(C)Cc2cccc(O)c2O1 | inactive
COC(=O)c1sccc1S(=O)(=O)NC(=O)Nc1nc(C)nc(OC)n1 | inactive
CCOP(=S)(OCC)Oc1nc(Cl)c(Cl)cc1Cl | inactive
Cc1ccc(N)cc1Cl | inactive
COc1cc(OC)nc(NC(=O)NS(=O)(=O)c2ncccc2C(=O)N(C)C)n1 | inactive
Clc1ccc(C2(Cn3cncn3)CC(Br)CO2)c(Cl)c1 (stereo not given) | inactive
O=C1CCCN1 | inactive
C=C(C)C(=O)[O][Sn]([CH2]CCC)([CH2]CCC)[CH2]CCC | inactive
Fc1ccc(C2(Cn3cncn3)OC2c2ccccc2Cl)cc1 (stereo not given) | inactive
Cc1ccc2ccccc2c1C | inactive
O=[N+]([O-])c1ccc(O)c([N+](=O)[O-])c1 | inactive
[O-][Cl+2]([O-])O | inactive
c1cc[c]([Hg][c]2ccccc2)cc1 | inactive
NNC(=S)NN | inactive
O=C(Nc1ccc2[nH]ccc2c1)c1cc2cc(F)ccc2n1Cc1cccc(F)c1 | inactive
C[C@H]1CCCC(=O)CCC/C=C/c2cc(O)cc(O)c2C(=O)O1 | 0.103 µM (active)
ClC1(Cl)C2(Cl)C3(Cl)C4(Cl)C(Cl)(Cl)C5(Cl)C3(Cl)C1(Cl)C5(Cl)C24Cl (stereo not given) | inactive
CC(C)OC(=O)Nc1ccccc1 | inactive
CC(=O)C=C(C)C | 7.47 µM (active)
COc1ccc(C=O)cc1OC | inactive
CC(=O)c1cc(C(C)(C)C)cc2c1CCC2(C)C | inactive
CNC(=O)O/N=C/C(C)(C)S(C)=O (stereo not given) | inactive
OCC(O)CCl (stereo not given) | inactive
CCC1(c2ccc(N)cc2)CCC(=O)NC1=O (stereo not given) | inactive
Clc1nc(Cl)nc(Cl)n1 | inactive
Cl/C=C\C[N+]12CN3CN(CN(C3)C1)C2 | 82.2 µM (active)
O=C(NCO)NCO | inactive
NC(=O)O | inactive
COP(=S)(OC)Oc1ccc(Sc2ccc(OP(=S)(OC)OC)cc2)cc1 | inactive
O=C/C=C/c1ccccc1 | inactive
CC(C#N)CCC#N (stereo not given) | inactive
COP(=O)(OC)OC | inactive
CC(C)(C)c1cc(O)ccc1O | inactive
Cl/C=C/Cl | inactive
COc1ccc(C=O)cc1 | inactive
O=C1C(Cl)=C(Cl)C(=O)c2ccccc21 | inactive

---

Assay: CCTE_Shafer_MEA_dev_inter_network_spike_interval_mean: CCTE's Neural Network Formation Assay for Mean Inter-network Spike Interval, Shafer Lab (AID 2284047)
Experimental: CCTE_Shafer_MEA_dev assay is conducted using Axion Biosystems 48 well microelectrode array (MEA) plates and Maestro recording system. Each well of the MEA plate contains a grid of 16 microelectrodes embedded in the culture surface. Electrically active cells, such as neurons, can be cultured over the electrodes, and electrical activity in these cells can be recorded extracellularly. […]
Activity calls are given as the source filed them. Rule for the calls: active = hit-call score of the fitted dose curve at least 0.9, where 1 is the maximum; inactive = score below 0.9.
Classes used: Y (active), N (inactive)

CCOP(=S)(OCC)Oc1nc(Cl)c(Cl)cc1Cl | N
O=C(O)C(F)(F)C(F)(F)C(F)(F)C(F)(F)C(F)(F)C(F)(F)C(F)(F)C(F)(F)C(F)(F)C(F)(F)F | N
C=C(C)C(=O)[O][Sn]([CH2]CCC)([CH2]CCC)[CH2]CCC | N
O=C1C2(Cl)C3(Cl)C4(Cl)C(Cl)(Cl)C5(Cl)C3(Cl)C1(Cl)C5(Cl)C24Cl (stereo unspecified) | Y
CC(=O)[O][Hg][c]1ccccc1 | Y
CC(C)(C)c1cc(O)ccc1O | N
